- Tested on: T-47D breast
- assay-method-text: NCI-60 one-dose screen, 48 h
- setup-conditions: 10 µM unless noted
- Method: Growth inhibition of the T-47D human tumor cell line is measured as a screen for anti-cancer activity. Cells are grown in 96 well plates and exposed to the test compound for 48 hours. Compounds are tested at a single concentration, which is 10^-5 M for most compounds. The reported endpoint is percent growth (GI% or GIPRCNT), where numbers from 0 - 100% represent growth inhibition, and numbers from -100% - 0 represent cell death. For example, a value of 40 represents 60% growth inhibition. […]
About 83,000 compounds went through this panel and 20% of them were active in at least one assay; those are over-represented in the sample as a whole. Calls of active or inactive are those of the source. Rule for the calls: active = growth percent below 10; inactive = the rest.
Possible outcomes: active, inactive

# molecule, group
data = [
    ("Cc1ccc(Cl)cc1NC(=O)c1cc2ccccc2cc1O", "active"),
    ("N[C@@H](CCCCNCC(=O)O)C(=O)O", "inactive"),
    ("COc1ccc2cc(-c3cc(OC)c(OC)c(OC)c3)c(=O)oc2c1", "inactive"),
    ("CC(C)C(NC(=O)C1(NC(=O)OCc2ccccc2)CCCC1)C(=O)O (stereo unspecified)", "inactive"),
    ("Nc1cc2c3c(cccc3c1)C(=O)N(CCN1CCCC1)C2=O", "inactive"),
    ("COc1ccc(-c2nc3c(c(=O)n2C(C)=O)C(c2ccc(Cl)cc2)c2sc4c(Cl)cccc4c2O3)cc1 (stereo unspecified)", "inactive"),
    ("COc1cccc(-c2nn(-c3ccccc3)cc2-c2ccnc(NCCCNC(=O)Nc3ccc(Cl)c(Cl)c3)c2)c1", "active"),
    ("COc1cccc(Nc2nccc(Nc3ccc4[nH]ncc4c3)n2)c1", "active"),
    ("CCN(CC)c1nc(SCC(=O)Nc2nc3ccc(C)cc3s2)nc(-c2ccccc2)c1C#N", "inactive"),
    ("N#Cc1c(-c2cccc(Cl)c2)cc(-c2cccc(Cl)c2)[nH]c1=O", "inactive"),
    ("C=C(C)[C@@H]1CC[C@]2(C(=O)NC3CCCCC3)CC[C@]3(C)[C@H](CC[C@@H]4[C@@]5(C)CCCNC(C)(C)[C@@H]5CC[C@]43C)[C@@H]12", "active"),
    ("CC(=O)c1nc(Nc2ccc(C)cc2)sc1C", "inactive"),
    ("NC[C@H](O)c1ccc(O)c(O)c1", "inactive"),
    ("Cn1cc(-c2csc(-c3ccccc3)n2)c2cccnc21", "active"),
    ("O=C(COc1ccc(/C=C2\\Oc3ccccc3C2=O)cc1)Nc1nc2c(s1)CCCC2", "inactive"),
    ("COc1ccc(-c2cc(-c3cc(OC)ccc3OC)nc(SCC(=O)c3ccccc3)c2C#N)cc1", "inactive"),
    ("O=C(CSc1nnc(-c2ccc(NC(=O)c3cccnc3)cc2)o1)N[C@@H](Cc1ccc(O)cc1)C(=O)O", "inactive"),
    ("CCCCCc1nc2c(c3c1CCCC3)CCCC2", "inactive"),
    ("CN(C)CCNc1nc2ccccc2c2c1c1c(n2Cc2ccccc2)-c2ccccc2C1=O", "active"),
    ("COc1ccc(CN2C(=O)C(Cl)=C(Nc3cccc(C(F)(F)F)c3)C2=O)cc1", "inactive"),
    ("Cc1ccc(S(=O)(=O)n2cc(CNc3ccc(N4CCOCC4=O)cc3)c3ccccc32)cc1", "inactive"),
    ("COc1ccc2c(c1)O/C(=C/c1ccc(OCC(=O)c3ccccc3)cc1)C2=O", "inactive"),
    ("CCN1C(=O)N(CC)C2Nn3c(s/c(=C\\c4ccc(Cl)cc4Cl)c3=O)=NC21 (stereo unspecified)", "inactive"),
    ("O=C(c1ccc(Nc2nccc(NCCCCNc3ccnc4cc(Cl)ccc34)n2)cc1)N1CCCCC1", "active"),
    ("N#Cc1c(N)nc(NCCO)nc1-c1ccc(F)cc1", "inactive"),
    ("Cc1c(C(=O)NC(Cc2ccccc2)C(O)C(=O)NCc2ccc(F)cc2)[nH]c2ccccc2c1=O (stereo unspecified)", "inactive"),
    ("COc1cc(/C=N/Nc2ncc(-c3cc4cc5c(cc4o3)OCO5)s2)cc(OC)c1OC", "inactive"),
    ("Cc1ccccc1NC(=O)N/C(N)=N/c1nc(C)c(C)s1", "inactive"),
    ("CCc1ccccc1-n1c(-c2ccc(Cl)cc2)cc(-c2ccc(Cl)cc2)c(C#N)c1=O", "inactive"),
    ("Cn1c(=O)c2c(nc(Cl)n2CCl)n(C)c1=O", "inactive"),
    ("N#Cc1c(-c2ccccc2)cc(-c2ccc(Nc3nc(Nc4ccc(F)cc4)nc(Nc4ccc(F)cc4)n3)cc2)nc1N", "inactive"),
    ("COc1ccc(NC(=O)c2nc(-c3cc(OC)c(OC)c(OC)c3)n(-c3cccc4ccccc34)n2)cc1OC", "inactive"),
    ("CCSC1=NC2C(N(CC)C(=O)N2CC)N1/N=C/C=C/c1ccccc1[N+](=O)[O-] (stereo unspecified)", "inactive"),
    ("COc1cc(C(=O)/C=C/c2c(C(F)(F)F)nc3sccn23)cc(OC)c1OC", "active"),
    ("Cc1cc(NCc2cc(Nc3ccnc4cc(Cl)ccc34)ccc2F)nc(N2CCN(C)CC2)n1", "active"),
    ("CC(=O)N1C(=S)NC(=O)C1Cn1c(-c2ccccc2)nc2ccccc21 (stereo unspecified)", "inactive"),
    ("O=C(/C=C/c1c(Cl)nc2sccn12)c1nccs1", "inactive"),
    ("CCCCN(CCCC)CC(C)(C)C(O)c1ccc(OC)c2ccccc12 (stereo unspecified)", "inactive"),
    ("CN(c1ccccc1)c1ccc2c(c1)OCCC21CC1Nc1cnccc1C(=O)O (stereo unspecified)", "inactive"),
    ("COc1cc(/C=C2\\C(=O)ON=C2C)cc(OC)c1OC", "inactive"),
    ("C=CCNc1nc(NN2C(=O)c3cccc4cccc(c34)C2=O)nc(-n2cnc3ccccc32)n1", "inactive"),
]
